The reported numbers originate from patent US11819572B2.

- measurement notes: in vivo
- run conditions: female, beagle, dog, iv, 1.5 mg/kg
- Method: Without wishing to be held to any particular mechanism or theory, it is believed that the observed toxicity differences above are attributable to the differences in plasma bupivacaine levels of the groups of dogs receiving free bupivacaine and EXPAREL®, respectively. […] Similarly, the Cmax for dogs receiving the same dose as in (i)—i.e., (1.5 mg/kg) of EXPAREL®—was clearly lower than that of dogs receiving free bupivacaine. […]
recorded endpoint: Cmax (ng/mL)
Give bare numbers, in ng/mL.

Measured Cmax, CCCCN1CCCCC1C(=O)Nc1c(C)cccc1C (stereo not shown) [free bupivacaine, bupivacaine] : 2050

====

- measurement notes: in vivo
- run conditions: male, beagle, dog, iv, 1.5 mg/kg
recorded endpoint: half-life

half-life recorded for this compound, CCCCN1CCCCC1C(=O)Nc1c(C)cccc1C (stereo not shown) [free bupivacaine, bupivacaine] , is 31.2 min
